# Relative Ratio to aMTD AVE values compiled below
system: RAW 264.7 cells; assay: Quantitative cell-permeability of FITC-labeled aMTD- or rPeptide-fused CRA recombinant proteins (flow cytometry); type: cell-based; conditions: cell-permeability of rPeptide-fused CRA recombinant protein relative to average of 240 aMTDs; 10 μM FITC-labeled, 1 hour, 37° C., RAW 264.7 cells
MEASURED QUANTITY: Relative Ratio to aMTD AVE

SUBSTANCE: 700 (GTSNTCQSNQNS; Amino acid Sequence of rPeptide ID 700) [compound 700]
TESTED TARGET: RAW 264.7 cells
TEST RESULT: 0.05
//
SUBSTANCE: 635 (GSTGGSQQNNQY; Amino acid Sequence of rPeptide ID 635) [compound 635]
TESTED TARGET: RAW 264.7 cells
TEST RESULT: 0.07
//
SUBSTANCE: 139 (TGSTNSPTCTST; Amino acid Sequence of rPeptide ID 139) [compound 139]
TESTED TARGET: RAW 264.7 cells
TEST RESULT: 0.17
//
SUBSTANCE: 426 (AAALAIPLAIIP; Amino acid Sequence of rPeptide ID 426) [compound 426]
TESTED TARGET: RAW 264.7 cells
TEST RESULT: 0.40
//
SUBSTANCE: 329 (LPVLVPVVPVVP; Amino acid Sequence of rPeptide ID 329) [compound 329]
TESTED TARGET: RAW 264.7 cells
TEST RESULT: 0.23
//
SUBSTANCE: 167 (VAIAIPAALAIP; Amino acid Sequence of rPeptide ID 167) [compound 167]
TESTED TARGET: RAW 264.7 cells
TEST RESULT: 0.50
//
SUBSTANCE: 97 (ALLAAPPALLAL; Amino acid Sequence of rPeptide ID 97) [compound 97]
TESTED TARGET: RAW 264.7 cells
TEST RESULT: 0.41

FYI, the data here is from patent US10385103B2.
